Literature compilation of IC50 measurements on Protein arginine N-methyltransferase 3 (Homo sapiens, UniProt O60678).

Record excerpt, results attached:
CNCCN(C)Cc1c[nH]nc1-c1ccc(F)cc1F: 4.43 µM
CC(C)Cc1ccc(-c2c[nH]nc2CN(C)CCN)cc1: 7.33 µM
CN(CCN)Cc1c[nH]nc1-c1ccnn1C: ≥ 10 µM
COCCn1ncc(CN(C)CCN)c1-c1ccc(F)cc1: > 50 µM
CCN(CC)C(=O)c1ccc(-c2n[nH]cc2CN(C)CCN)cc1: 8.37 µM
CN(CCN)Cc1c[nH]nc1-c1ccsc1: 3.01 to 10 µM

Req: Quick one: IC50 for "NC(=O)[C@@H](N)CC[C@H](CNCC(F)(F)F)C[C@H]1O[C@@H](n2cnc3c(N)ncnc32)[C@H](O)[C@@H]1O" ?
Resp: 9.4 µM

Req: Quick one: IC50 for "CN(CCN)Cc1c[nH]nc1-c1ccc(C(F)(F)F)c(Cl)c1" ?
Resp: 2.3 µM

Req: Quick one: IC50 for "CNCCN(C)Cc1c[nH]nc1-c1ccc2ccccc2c1" ?
Resp: 3.16 µM

Req: Quick one: IC50 for "CCOc1ccc(-c2n[nH]cc2CN(C)CCN)cc1" ?
Resp: 3.45 µM
